System: Variola virus
protocol.text: Antiviral activity against variola virus BSH virus by CPE assay
Format: functional, organism-based
Please go through the items and note down their EC50.
One number for each entry, in µM.

- molecule: "O=C(NN1C(=O)[C@@H]2C3C=CC(C4CC43)[C@@H]2C1=O)c1ccc(C(F)(F)F)cc1 (stereo partly specified)"
  output.unit: "µM"
  number: 0.05

Quick request: EC50 for each listed item, please.
1. O=C(NN1C(=O)[C@@H]2C3CCC(C4CC43)[C@@H]2C1=O)c1ccc(C(F)(F)F)cc1 (stereo partly specified)
2. O=C(NN1C(=O)[C@@H]2C3C=CC(C4CC43)[C@@H]2C1=O)c1ccc(Br)cc1 (stereo partly specified)
3. O=C(NN1C(=O)[C@@H]2C3C=CC(C4CC43)[C@@H]2C1=O)c1ccccc1Br (stereo partly specified)
4. O=C(NN1C(=O)[C@@H]2C3C=CC(C4CC43)[C@@H]2C1=O)c1ccncc1 (stereo partly specified)

OUT:
0.2
0.05
3.3
0.4

* * *

protocol.text: AUC in rat at 2 mg/kg, po
Assay type: ADME, organism-based
Set-up: dose 2 mg/kg, route oral
run.conditions: plasma
value.kind: AUC (ng·h/mL)
One number for each entry, in ng·h/mL.

IN: Could you tell me which AUC is on file for O=C(NN1C(=O)[C@@H]2C3C=CC(C4CC43)[C@@H]2C1=O)c1ccc(C(F)(F)F)cc1 (stereo partly specified) ?
OUT: 6100

* * *

protocol.text: Metabolic stability in dog Liver S9 fraction
Type: ADME, subcellular, Canis lupus familiaris
value.kind: half-life

Quick request: half-life for each listed item, please.
1. O=C(NN1C(=O)[C@@H]2C3C=CC(C4CC43)[C@@H]2C1=O)c1ccc(C(F)(F)F)cc1 (some centres not stated)
2. O=C(NN1C(=O)[C@@H]2C3C=CC(C4CC43)[C@@H]2C1=O)c1ccc(Br)cc1 (some centres not stated)

OUT:
1: > 3.33 h; 2: > 3.33 h

* * *

protocol.text: Tmax in rat at 2 mg/kg, po
Format: ADME, organism-based
Parameters: dose 2 mg/kg, route oral
run.conditions: in vivo
value.kind: Tmax (h)
One number for each entry, in h.

IN: Could you tell me which Tmax is on file for O=C(NN1C(=O)[C@@H]2C3C=CC(C4CC43)[C@@H]2C1=O)c1ccc(C(F)(F)F)cc1 (stereo partly specified) ?
OUT: 2.2

* * *

protocol.text: Metabolic stability in rat Liver S9 fraction
Format: ADME, subcellular
Please go through the items and note down their half-life.

- compound: "O=C(NN1C(=O)[C@@H]2C3C=CC(C4CC43)[C@@H]2C1=O)c1ccc(C(F)(F)F)cc1 (some centres not stated)"
  half-life: "> 3.33 h"

IN: Could you tell me which half-life is on file for O=C(NN1C(=O)[C@@H]2C3C=CC(C4CC43)[C@@H]2C1=O)c1ccc(Br)cc1 (some centres not stated) ?
OUT: > 3.33 h

* * *

protocol.text: Half life in rat at 2 mg/kg, po
Type: ADME, organism-based
Design: dose 2 mg/kg, route oral
run.conditions: in vivo
value.kind: half-life (h)
One number for each entry, in h.

IN: Could you tell me which half-life is on file for O=C(NN1C(=O)[C@@H]2C3C=CC(C4CC43)[C@@H]2C1=O)c1ccc(C(F)(F)F)cc1 (stereo partly specified) ?
OUT: 4.2
